- tested target: human glucagon receptor (human, UniProt P47871 26-477)
- Sequence (P47871 26-477): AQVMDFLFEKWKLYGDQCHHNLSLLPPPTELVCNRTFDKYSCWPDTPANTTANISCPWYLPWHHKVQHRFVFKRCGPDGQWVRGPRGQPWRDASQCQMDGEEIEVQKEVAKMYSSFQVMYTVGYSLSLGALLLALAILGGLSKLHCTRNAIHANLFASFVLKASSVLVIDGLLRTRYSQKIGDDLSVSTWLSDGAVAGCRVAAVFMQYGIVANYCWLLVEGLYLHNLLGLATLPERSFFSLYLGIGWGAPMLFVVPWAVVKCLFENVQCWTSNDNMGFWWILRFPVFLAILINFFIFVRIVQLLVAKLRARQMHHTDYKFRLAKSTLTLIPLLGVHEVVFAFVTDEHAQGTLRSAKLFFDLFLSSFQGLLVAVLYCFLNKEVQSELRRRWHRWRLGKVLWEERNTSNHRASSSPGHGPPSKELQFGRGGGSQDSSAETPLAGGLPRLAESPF
- experimental protocol: cell-based or functional assay
Positions of bridges follow the written chain, without caps; N, C: chain ends. Non-standard residues stand in square brackets, D forms with d. No end group written: not given here. Aib = CC(C)(N)C(=O)O
Reported In vitro activity (relative activity to SEQ ID NO: 1, %), cAMP assay, from EC50 values are given for each entry in this list.
endpoint: In vitro activity (relative activity to SEQ ID NO: 1, %), cAMP assay, from EC50

{"columns": ["binder", "result operator", "numeric readout"],
 "data": [
  ["Y[Aib]QGTFTSDYSKYCDEKRAKEFVQWLMNT (lactam 16-20) [glucagon derivative of SEQ ID NO: 23]", "=", 76.8],
  ["Y[Aib]QGTFTSDYSKYLDSCDAQDFVQWLINT [glucagon derivative of SEQ ID NO: 8]", "<", 0.1],
  ["Y[Aib]QGTFTSDYSKYLCEKRAKEFVQWLMNT (lactam 16-20) [glucagon derivative of SEQ ID NO: 19]", "=", 12.1],
  ["Y[Aib]QGTFTSDYSCYLDSRRAQDFVQWLMNT [glucagon derivative of SEQ ID NO: 13]", "=", 5.2],
  ["Y[Aib]QGTFTSDYSKYLDEKRAKEFVQWLMNTC (lactam 16-20) [glucagon derivative of SEQ ID NO: 12]", "=", 56.3],
  ["HSQGTFTSDYSKYLDCDRAQDFVQWLMNT [glucagon derivative of SEQ ID NO: 2]", "=", 0.6],
  ["W[Aib]QGTFTSDYSKCLDERRAKDFVQWLMNT (lactam 16-20) [glucagon derivative of SEQ ID NO: 30]", "=", 0.3],
  ["W[Aib]QGTFVSDYSKYLDECRAKDFVQWLMNT (lactam 16-20) [glucagon derivative of SEQ ID NO: 28]", "<", 0.1]
]}
